# FACS fluorescence annotations
Tgt: human Claudin-6 (CLDN6) (human) (UniProt P56747)
Test Protocol: FACS, 1.5 ug Ab, OVCA429 cells (2nd Ab only 885.77)

Solved entries:
AB9-4 (antibody, V domains shown, humanized) VH: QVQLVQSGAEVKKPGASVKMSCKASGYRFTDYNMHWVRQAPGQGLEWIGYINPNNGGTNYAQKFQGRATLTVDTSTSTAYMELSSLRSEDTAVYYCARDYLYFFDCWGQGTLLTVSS VL: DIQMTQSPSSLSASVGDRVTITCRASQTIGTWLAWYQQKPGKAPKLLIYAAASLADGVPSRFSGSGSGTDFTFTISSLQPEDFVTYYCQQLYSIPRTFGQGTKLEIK; 1110
AB1-7 (antibody, V domains shown, humanized) VH: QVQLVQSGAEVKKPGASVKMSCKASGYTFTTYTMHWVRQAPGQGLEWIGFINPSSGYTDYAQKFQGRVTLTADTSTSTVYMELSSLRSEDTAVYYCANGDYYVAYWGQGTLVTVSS VL: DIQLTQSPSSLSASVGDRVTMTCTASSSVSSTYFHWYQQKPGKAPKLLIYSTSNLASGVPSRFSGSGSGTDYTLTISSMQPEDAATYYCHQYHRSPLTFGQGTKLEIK; 44700

Quick one: FACS fluorescence of AB4-5 (antibody, V domains shown, humanized) VH: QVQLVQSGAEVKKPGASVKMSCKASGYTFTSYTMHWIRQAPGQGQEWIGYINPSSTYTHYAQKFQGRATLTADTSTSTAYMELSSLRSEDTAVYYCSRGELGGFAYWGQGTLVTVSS VL: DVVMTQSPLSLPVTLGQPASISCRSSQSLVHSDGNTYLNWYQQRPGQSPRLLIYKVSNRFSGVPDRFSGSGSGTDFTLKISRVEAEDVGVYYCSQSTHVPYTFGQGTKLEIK ?
1350

Quick one: FACS fluorescence of AB3-3 (antibody, V domains shown, humanized) VH: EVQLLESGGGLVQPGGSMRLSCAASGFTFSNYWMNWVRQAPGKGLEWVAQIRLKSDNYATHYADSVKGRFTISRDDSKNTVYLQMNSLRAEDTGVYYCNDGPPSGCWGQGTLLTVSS VL: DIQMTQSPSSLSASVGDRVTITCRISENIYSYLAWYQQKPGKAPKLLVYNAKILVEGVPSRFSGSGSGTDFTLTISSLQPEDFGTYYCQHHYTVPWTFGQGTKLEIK ?
88700

Quick one: FACS fluorescence of AB18-6 (antibody, V domains shown) VH: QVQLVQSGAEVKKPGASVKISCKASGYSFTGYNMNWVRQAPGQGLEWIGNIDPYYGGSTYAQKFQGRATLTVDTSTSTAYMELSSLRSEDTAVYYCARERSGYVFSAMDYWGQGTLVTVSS VL: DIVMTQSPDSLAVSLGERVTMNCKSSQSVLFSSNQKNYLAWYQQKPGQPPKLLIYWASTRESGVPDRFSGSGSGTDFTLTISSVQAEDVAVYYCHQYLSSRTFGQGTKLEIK ?
6750

Sourced from patent US20230049752A1
